Quick reference: kcat/Km of the listed items.
substrate: CCCCCCCCCCCCCCCC/C=C\OC[C@@H](O)COP(=O)([O-])OCC[N+](C)(C)C; experiment: released choline by choline oxidase/peroxidase colorimetric assay, Michaelis-Menten fit; assay type: biochemical, Thermocrispum sp. RD004668; details: pH 8.0, 50 °C, 1 min, 2 mM CaCl2, substrate micelles
parameter: kcat/Km

# protein, reported value
rows = [
    ("LyPls-PLD (lysoplasmalogen-specific phospholipase D) (Thermocrispum sp. RD004668; W282G) (protein, recombinant from pET24/lpls-pld in E. coli BL21(DE3); purified on HisTrap HP) TTRTTDNPWLDARVLNMAHAGGENEAPANTLYAFKRAVKLGANMLELDVQSTKDDQLVVIHNATVDQTTDGTGKVRDLTFEQVHELDAAYNFIPGRHAVPGEPPESYPLRGVRTGEKKPPPGYQPSDFAIPKLADVLEAFPRTPINIEIKGTSDADIPSFLHNAKLLARLLKKTGRTDFIVTSFNDLAVAKFHLLAPDIPIAPGMAGLAAYFLLGVKPMHGTVALQIPVRYQGLEIATPEFIRRAHADGYAVHVGFSGTAPDDEATYNRIIDSCADGLMPAYPALLERILDERGIERPGRPGVDPCG", "36000 M⁻¹ s⁻¹"),
    ("LyPls-PLD (lysoplasmalogen-specific phospholipase D) (Thermocrispum sp. RD004668; M71G) (protein, recombinant from pET24/lpls-pld in E. coli BL21(DE3); purified on HisTrap HP) TTRTTDNPWLDARVLNMAHAGGENEAPANTLYAFKRAVKLGANGLELDVQSTKDDQLVVIHNATVDQTTDGTGKVRDLTFEQVHELDAAYNFIPGRHAVPGEPPESYPLRGVRTGEKKPPPGYQPSDFAIPKLADVLEAFPRTPINIEIKGTSDADIPSFLHNAKLLARLLKKTGRTDFIVTSFNDLAVAKFHLLAPDIPIAPGMAGLAAYFLLGVKPMHGTVALQIPVRYQGLEIATPEFIRRAHADGYAVHVWFSGTAPDDEATYNRIIDSCADGLMPAYPALLERILDERGIERPGRPGVDPCG", "880000 M⁻¹ s⁻¹"),
]

Data provenance: paper PMC8016129
